SYSTEM: T1, PTPRG, endogenous in H929 multiple myeloma cells (human, UniProt P23470 20-1445)
T1 construct: Native protein on H929 cells (flow cytometry, siRNA knockdown) and in H929 lysates (IP/MS); also called phosphatase receptor type γ
T1 sequence (P23470 20-1445 limits assumed): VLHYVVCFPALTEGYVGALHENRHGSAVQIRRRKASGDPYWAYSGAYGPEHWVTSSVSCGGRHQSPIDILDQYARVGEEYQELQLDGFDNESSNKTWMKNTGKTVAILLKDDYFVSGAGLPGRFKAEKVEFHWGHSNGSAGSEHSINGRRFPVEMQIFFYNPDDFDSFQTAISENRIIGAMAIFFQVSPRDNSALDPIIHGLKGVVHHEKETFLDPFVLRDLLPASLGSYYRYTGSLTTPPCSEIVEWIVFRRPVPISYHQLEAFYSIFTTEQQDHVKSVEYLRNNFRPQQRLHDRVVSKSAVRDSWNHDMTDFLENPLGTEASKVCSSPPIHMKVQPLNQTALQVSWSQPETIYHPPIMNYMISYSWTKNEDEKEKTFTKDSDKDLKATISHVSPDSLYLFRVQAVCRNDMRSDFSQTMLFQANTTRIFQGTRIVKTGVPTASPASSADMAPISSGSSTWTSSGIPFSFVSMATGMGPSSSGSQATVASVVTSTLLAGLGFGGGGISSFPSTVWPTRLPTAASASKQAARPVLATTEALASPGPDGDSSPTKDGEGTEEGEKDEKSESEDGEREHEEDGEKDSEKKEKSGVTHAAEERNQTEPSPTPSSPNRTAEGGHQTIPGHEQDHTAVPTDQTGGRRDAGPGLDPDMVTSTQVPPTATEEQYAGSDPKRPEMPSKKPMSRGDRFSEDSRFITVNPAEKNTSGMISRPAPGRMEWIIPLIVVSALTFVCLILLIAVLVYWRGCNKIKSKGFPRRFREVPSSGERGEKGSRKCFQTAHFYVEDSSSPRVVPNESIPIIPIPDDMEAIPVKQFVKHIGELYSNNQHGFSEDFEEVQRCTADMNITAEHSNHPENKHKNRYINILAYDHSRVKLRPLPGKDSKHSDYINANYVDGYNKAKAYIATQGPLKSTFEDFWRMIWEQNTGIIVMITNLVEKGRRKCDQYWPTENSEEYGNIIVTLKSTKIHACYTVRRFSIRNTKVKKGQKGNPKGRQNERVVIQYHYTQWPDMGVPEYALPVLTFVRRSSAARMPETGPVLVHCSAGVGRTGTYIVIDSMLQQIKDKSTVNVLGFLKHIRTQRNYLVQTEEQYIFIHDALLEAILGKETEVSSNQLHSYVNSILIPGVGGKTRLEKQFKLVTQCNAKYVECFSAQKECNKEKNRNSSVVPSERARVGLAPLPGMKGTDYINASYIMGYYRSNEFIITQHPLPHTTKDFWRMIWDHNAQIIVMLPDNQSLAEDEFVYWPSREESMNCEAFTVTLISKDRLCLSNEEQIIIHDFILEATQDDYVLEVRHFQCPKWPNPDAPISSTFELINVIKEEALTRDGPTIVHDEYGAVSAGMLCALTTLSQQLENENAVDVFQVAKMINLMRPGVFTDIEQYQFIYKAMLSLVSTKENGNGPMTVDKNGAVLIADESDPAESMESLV
ASSAY TEXT: flow cytometry, H929 + NT Green siRNA; None 416
MEASURED QUANTITY: mAb binding (MFI)
The answer should be written as a number, with no unit following it.

BINDER	mAb binding (MFI)
HW-17 chimeric rabbit-human IgG1 LA/LA/PG (antibody, V domains shown, Fc-silenced (L234A/L235A/P329G) IgG1, lambda; Alexa Fluor 647-labeled in single-step flow cytometry; Cluster C-1) VH: QSLGESRGRLVTPDETLTLTCTVSGIDLSSNAMSWVRQAPGEGLEWIGTINTGGRAYYASWAKGRFTISRTSTTVDLKMTSLTTEDTATYFCARERYSDGRAYDIWGPGTLVTISS VL: SFVLTQPASVQVNLGQTVSLTCTADTLSRRYASWYQQKPGQAPVLLIYTDSNRPSGIPDRFSGSSSGNTATLTISGAQAGDEADYYCATDDGSGSIYQYVFGGGTQLTVTG	18600

Prompt: // mAb binding (MFI) lookup, key: HW-42 chimeric rabbit-human IgG1 LA/LA/PG (antibody, V domains shown, Fc-silenced (L234A/L235A/P329G) IgG1, lambda; Alexa Fluor 647-labeled in single-step flow cytometry; Cluster C-1) VH: QSVKESEGGLFKPADTLTLTCTVSGFSLSSNEISWVRQAPGEGLEYIGIIDTGGRAYYAVWARSRSTITRNTNLNTVTLKMTSLTAADTATYFCARGGVDTEWYAFSSWGPGTLVTVPS VL: SFVLTQPASVQVNLGQTVSLTCTADTLSRRYASWYQQKPGQAPVLLIFRDTSRPSGVPDRFSGSSSGDTATLTISGAQAGDEADYYCATSDGSGSNYQYVFGGGTQLTVTG
Response: 8410

Prompt: // mAb binding (MFI) lookup, key: HW-25 chimeric rabbit-human IgG1 LA/LA/PG (antibody, V domains shown, Fc-silenced (L234A/L235A/P329G) IgG1, lambda; Alexa Fluor 647-labeled in single-step flow cytometry; Cluster C-1) VH: QSLEESGGRLVTPGTPLTLTCTVSGFSLSSYAMGWVRQAPGKGLEWIGIIDSRGSTYYATWAKGRFTISKTSTTVDLKITSPTTEDTATYFCAREDSYYYDSFNLWGPGTLVTVSS VL: SFVLTQPASVQVNLGQTVSLTCTADTLSRRYASWYQQKPGQAPVLLIYRDTSRPSGVPDRFSGSSSGNTATLTISGAQAGDEADYYCATSDGSGSSYQCVFGGGTQLTVTG
Response: 7680
